experimental system: WT EGFR (Homo sapiens, UniProt P00533)
Sequence (P00533 25-1210): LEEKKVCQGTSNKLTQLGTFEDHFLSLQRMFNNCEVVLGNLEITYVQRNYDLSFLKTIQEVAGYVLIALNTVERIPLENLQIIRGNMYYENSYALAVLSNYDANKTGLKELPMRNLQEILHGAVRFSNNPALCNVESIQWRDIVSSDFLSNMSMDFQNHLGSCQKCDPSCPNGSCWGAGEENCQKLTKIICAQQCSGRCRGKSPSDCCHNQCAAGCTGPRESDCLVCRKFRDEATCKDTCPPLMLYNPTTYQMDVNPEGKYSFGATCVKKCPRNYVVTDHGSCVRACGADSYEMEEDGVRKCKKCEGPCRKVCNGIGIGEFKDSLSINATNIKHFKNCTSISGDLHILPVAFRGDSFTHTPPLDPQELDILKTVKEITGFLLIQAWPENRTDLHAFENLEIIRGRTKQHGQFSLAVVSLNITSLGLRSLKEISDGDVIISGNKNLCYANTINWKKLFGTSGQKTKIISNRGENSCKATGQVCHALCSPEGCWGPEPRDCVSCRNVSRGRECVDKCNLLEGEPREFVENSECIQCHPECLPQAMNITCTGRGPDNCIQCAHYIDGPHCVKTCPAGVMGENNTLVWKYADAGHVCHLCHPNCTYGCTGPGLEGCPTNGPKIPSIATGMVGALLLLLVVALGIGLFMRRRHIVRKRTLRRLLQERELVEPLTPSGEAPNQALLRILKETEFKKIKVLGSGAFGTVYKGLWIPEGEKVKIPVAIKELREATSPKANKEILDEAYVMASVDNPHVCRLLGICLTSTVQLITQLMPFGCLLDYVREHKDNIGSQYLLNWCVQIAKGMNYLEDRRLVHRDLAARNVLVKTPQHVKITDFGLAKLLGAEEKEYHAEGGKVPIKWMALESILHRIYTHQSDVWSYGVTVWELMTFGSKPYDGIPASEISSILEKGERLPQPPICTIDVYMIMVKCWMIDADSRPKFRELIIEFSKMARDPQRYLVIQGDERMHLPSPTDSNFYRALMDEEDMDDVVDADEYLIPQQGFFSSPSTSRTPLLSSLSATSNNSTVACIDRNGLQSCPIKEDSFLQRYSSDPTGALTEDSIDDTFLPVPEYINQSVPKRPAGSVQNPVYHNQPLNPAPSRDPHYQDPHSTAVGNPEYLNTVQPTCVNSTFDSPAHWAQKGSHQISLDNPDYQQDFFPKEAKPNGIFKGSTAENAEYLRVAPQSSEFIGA
experiment: WT EGFR cellular phosphorylation inhibition in A-431 (hEGF stimulated, MSD);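 also: electrochemiluminescence read-out of EGFR Tyr1068 phosphorylation expressed as ratio to total EGFR, cells kept in medium with 1% FBS, compounds tested as a concentration series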
particulars: A431 cells, 4 h compound, then 100 ng/ml hEGF 10 min
reported metric: IC50 (nM)

Field: example entries. Status: answers known.
{"columns": ["molecule", "test result"],
 "data": [
  ["C=CC(=O)Nc1cc(Nc2nccc(Nc3cc(Cl)c(F)cc3C(C)(C)O)n2)c(OC)cc1N1CC(F)(F)C[C@@H]1CN(C)C", 97.8],
  ["C=CC(=O)Nc1cc(Nc2ncnc(Nc3cc(F)c(F)cc3C(C)(C)O)n2)c(OC)cc1N(C)C[C@H]1CCCN1C", 27.2],
  ["C=CC(=O)Nc1cc(Nc2ncnc(Nc3cc(F)c(F)cc3C(C)(C)O)n2)c(OC)cc1N1CC[C@@H](N(C)C)C1", 34.8],
  ["C=CC(=O)Nc1cc(Nc2ncnc(Nc3cc(Cl)c(F)cc3C(C)(C)O)n2)c(OC)cc1N(C)CCN1CCCCC1", 103],
  ["C=CC(=O)Nc1cc(Nc2ncc(Cl)c(Nc3cc(Cl)c(F)cc3C(C)(C)O)n2)c(OC)cc1N1CC[C@@H](N(C)C)C1", 133],
  ["C=CC(=O)Nc1cc(Nc2ncnc(Nc3cc(F)c(F)cc3C(C)(C)O)n2)c(OC)cc1N1CC(CN(C)C)C1", 101]
]}

(I) C=CC(=O)Nc1cc(Nc2ncnc(Nc3cc(F)c(Cl)cc3C(C)(C)O)n2)c(OC)cc1N1CC[C@@H](N(C)C)C1
(II) C=CC(=O)Nc1cc(Nc2ncnc(Nc3cc(F)c(C4CC4)cc3C(C)(C)O)n2)c(OC)cc1N(C)CCN(C)C
Determine, for I and II , which has the greater value of IC50. Please indicate the selected item by its label.
I

(a) C=CC(=O)Nc1cc(Nc2ncnc(Nc3cc(Cl)c(F)cc3C(C)(O)CC)n2)c(OC)cc1N1CCC[C@@H]1CN(C)C (stereo partly shown)
(b) C=CC(=O)Nc1cc(Nc2ncnc(Nc3ccc(F)c(F)c3C(C)(C)O)n2)c(OC)cc1N(C)CCN(C)C
Kindly identify the item with the lower IC50 figure among these two: a and b Please indicate the selected item by its label.
a

(I) C=CC(=O)Nc1cc(Nc2ncnc(Nc3cc(F)c(Cl)cc3C(C)(C)O)n2)c(OC)cc1N1CCC[C@@H]1CN(C)C
(II) C=CC(=O)Nc1cc(Nc2ncnc(Nc3cc(C4CC4)c(F)cc3C(C)(C)O)n2)c(OC)cc1N(C)CCN(C)C
Kindly identify the item with the lower IC50 figure among these two: I and II Please indicate the selected item by its label.
I

----------
Tested on: Ba/F3 EGFR ASV ins cells
experiment: Cell proliferation, Ba/F3 EGFR ASV ins (CellTiter-Glo, 72 h)
Assay type: cell-based
particulars: Ba/F3 EGFR, 72 h, Ba/F3 EGFR ASV ins, 72 h proliferation; read-out: EGFR Exon20 ASV insertion GI50
reported metric: GI50 (nM)

{"columns": ["molecule", "GI50 / nM"],
 "data": [
  ["C=CC(=O)Nc1cc(Nc2ncnc(Nc3cc(F)c(F)cc3C(C)(C)O)n2)c(OC)cc1N(C)CCN1CCCC1 [Compound 18]", 91.3],
  ["C=CC(=O)Nc1cc(Nc2ncnc(Nc3cc(F)c(F)cc3C(C)(C)O)n2)c(OC)cc1N1CC[C@H]2CN(C)C[C@H]21 [Compound 25]", 552],
  ["C=CC(=O)Nc1cc(Nc2ncnc(Nc3cc(Cl)c(F)cc3C(C)(C)O)n2)c(OC)cc1N1CC[C@H](N(C)C)C1 [Compound 60]", 76.3],
  ["[2H]C([2H])([2H])N(CCN(C)c1cc(OC)c(Nc2ncnc(Nc3cc(F)c(F)cc3C(C)(C)O)n2)cc1NC(=O)C=C)C([2H])([2H])[2H] [Compound 22]", 26.5]
]}

(A) C=CC(=O)Nc1cc(Nc2ncnc(Nc3cc(Cl)c(F)cc3C(C)(C)O)n2)c(OC)cc1N(C)C[C@@H]1CCCN1C [Compound 44]
(B) C=CC(=O)Nc1cc(Nc2ncc(C#N)c(Nc3cc(Cl)c(F)cc3C(C)(C)O)n2)c(OC)cc1N1CC[C@@H](N(C)C)C1 [Compound 85]
Kindly identify the item with the lower GI50 figure among these two: A and B Please indicate the selected item by its label.
A

----------
experimental system: WT EGFR (Homo sapiens)
experiment: WT EGFR cellular phosphorylation inhibition in A-431 (hEGF stimulated, MSD)
particulars: A431 cells, 4 h compound, then 100 ng/ml hEGF 10 min
pIC50: −log10 of the molar value. Counter-ions that a name gives are not always drawn.
reported metric: pIC50

{"columns": ["compound", "pIC50"],
 "data": [
  ["C=CC(=O)Nc1cc(Nc2nccc(Nc3cc(Cl)c(F)cc3C(C)(C)O)n2)c(OC)cc1N1C[C@H](F)C[C@@H]1CN(C)C [Compound 88, formic acid salt]", 7.56],
  ["C=CC(=O)Nc1cc(Nc2ncnc(Nc3cc(Cl)c(F)cc3C3(O)CCC3)n2)c(OC)cc1N(C)CCN(C)C [Compound 72, formic acid salt]", 7.58],
  ["C=CC(=O)Nc1cc(Nc2ncnc(Nc3cc(Cl)c(F)cc3C(C)(C)O)n2)c(OC)cc1N1CCC[C@H]1CN(C)C [Compound 65]", 6.32]
]}

(I) C=CC(=O)Nc1cc(Nc2ncnc(Nc3cc(Cl)c(Cl)cc3C(C)(C)O)n2)c(OC)cc1N1CC[C@@H](N(C)C)C1 [Compound 61]
(II) C=CC(=O)Nc1cc(Nc2ncnc(Nc3cc(F)c(F)cc3C(C)(C)O)n2)c(OC)cc1N1CC[C@H]2CN(C)C[C@H]21 [Compound 25]
Kindly identify the item with the lower pIC50 figure among these two: I and II Please indicate the selected item by its label.
II

----------
Quick reference for GI50 among some compounds
Tested on: DB cells
experiment: BTK (wt) cell proliferation, DB (CellTiter-Glo, 72 h);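 also: DB cells in 384-well plates given a dilution series of compound, viable cells read by ATP luminescence, growth expressed versus DMSO control after subtracting a time-zero plate reading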
Assay type: cell-based
particulars: Homo sapiens, DB, DB cells, CellTiter-Glo, read-out: Non-BCR activated DB GI50
Structures can show the parent of a compound that is named as a salt.

{"columns": ["compound", "experimental system", "GI50"],
 "data": [
  ["C=CC(=O)Nc1cc(Nc2ncnc(Nc3cc(F)c(C4CC4)cc3C(C)(C)O)n2)c(OC)cc1N(C)CCN(C)C", "DB cells", "> 3 µM"],
  ["C=CC(=O)Nc1cc(Nc2ncnc(Nc3ccccc3C3(O)CC3)n2)c(OC)cc1N(C)CCN(C)C", "DB cells", "> 3 µM"],
  ["C=CC(=O)Nc1cc(Nc2nccc(Nc3cc(Cl)c(F)cc3C(C)(C)O)n2)c(OC)cc1N(C)C[C@H]1C[C@H](C)CN1C [Compound 90, formic acid salt]", "DB cells", "> 3 µM"],
  ["C=CC(=O)Nc1cc(Nc2ncnc(Nc3cc(F)c(Cl)cc3C(C)(C)O)n2)c(OC)cc1N1CC[C@@H]2CN(C)C[C@@H]21", "DB cells", "> 3 µM"],
  ["C=CC(=O)Nc1cc(Nc2nccc(Nc3cc(Cl)c(Cl)cc3C(C)(C)O)n2)c(OC)cc1N1CC[C@@H](N(C)C)C1", "DB cells", "2.51 µM"]
]}

Return GI50 (reported value) for this compound: C=CC(=O)Nc1cc(Nc2ncnc(Nc3cc(F)c(Cl)cc3C(C)(C)O)n2)c(OC)cc1N(C)CCN(C)C
> 3 µM

Return GI50 (reported value) for this compound: C=CC(=O)Nc1cc(Nc2ncnc(Nc3cc(F)c(F)cc3C(C)(C)O)n2)c(OC)cc1N(C)CCN1CCCC1
> 3 µM

Return GI50 (reported value) for this compound: C=CC(=O)Nc1cc(Nc2ncnc(Nc3cc(F)c(F)cc3C(C)(O)CC)n2)c(OC)cc1N1CC[C@@H]1CN(C)C (some centres unmarked)
> 3 µM

Return GI50 (reported value) for this compound: C=CC(=O)Nc1cc(Nc2ncnc(Nc3cc(Cl)c(F)cc3C(C)(O)CC)n2)c(OC)cc1N(C)CCN(C)C (centres unmarked)
> 3 µM

Return GI50 (reported value) for this compound: C=CC(=O)Nc1cc(Nc2ncc(Cl)c(Nc3cc(Cl)c(F)cc3C(C)(C)O)n2)c(OC)cc1N1CC[C@@H](N(C)C)C1
> 3 µM

Return GI50 (reported value) for this compound: C=CC(=O)Nc1cc(Nc2nccc(Nc3cc(Cl)c(F)cc3C(C)(C)O)n2)c(OC)cc1N(C)CCN(C)C
0.881 µM

----------
Test system: Ba/F3 EGFR ASV ins cells
experiment: Cell proliferation, Ba/F3 EGFR ASV ins (CellTiter-Glo, 72 h);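 also: IL3-independent Ba/F3 cells transduced with EGFR V769_D770insASV, cellular ATP luminescence after compound exposure, growth relative to DMSO control with the day-0 baseline reading subtracted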
Type: cell-based
particulars: Ba/F3 EGFR, 72 h, Ba/F3 EGFR ASV ins, 72 h proliferation; read-out: EGFR Exon20 ASV insertion GI50
reported metric: GI50 (nM)

{"columns": ["molecular string", "test result"],
 "data": [
  ["C=CC(=O)Nc1cc(Nc2nccc(Nc3cc(Cl)c(F)cc3C(C)(C)O)n2)c(OC)cc1N1C[C@@H]2CN(C)C[C@@H]21", 55.6]
]}

(1) C=CC(=O)Nc1cc(Nc2ncnc(Nc3cc(F)c(C4CC4)cc3C(C)(C)O)n2)c(OC)cc1N1CC[C@@H]2CN(C)C[C@@H]21
(2) C=CC(=O)Nc1cc(Nc2ncnc(Nc3ccccc3C3(O)CC3)n2)c(OC)cc1N(C)CCN(C)C
Determine, for 1 and 2 , which has the greater value of GI50. Please indicate the selected item by its label.
2
(2: 42.2 nM, 1: 13.6 nM)

Values from patent US20230293535A1
